Published Ki for D(3) dopamine receptor (Rattus norvegicus), assembled from different documents, is shown next.
Give the value, in units of nM, as a plain number.

Lookup: GET Ki | system: D(3) dopamine receptor (Rattus norvegicus) | item: CCCN(CCN1CCN(c2ccccc2OC)CC1)C1CCc2nc(N)sc2C1 (single isomer, unassigned; (-))
Found: 7.01

Lookup: For D(3) dopamine receptor (Rattus norvegicus), give Ki of the listed compound: COc1c(C(=O)NC[C@@H]2CCCN2C2C3CCCC2CCC3)cc(Br)c2ccccc12 (some centres undefined)
Found: 7.5

Lookup: Give Ki only, for O=C(CCCN1CCC(c2noc3cc(F)ccc23)CC1)c1cc2c3c(c1)CCN3C(=O)CC2 , using D(3) dopamine receptor (Rattus norvegicus) data.
Found: 61.3

Lookup: Enter recorded Ki with D(3) dopamine receptor (Rattus norvegicus) for COc1c(C(=O)N[C@@H]2CCN(C3CCCC3)C2)cc(Br)c2ccccc12 here.
Found: 75

====

// cross-study collection: Ki for D(3) dopamine receptor (Rattus norvegicus, UniProt P19020)
Write the value in nM as a bare number.

Lookup: Return reported Ki for target or system D(3) dopamine receptor (Rattus norvegicus, UniProt P19020), item COc1ccccc1N1CCN(CC2CCN(C(=O)c3cc4ccccc4o3)CC2)CC1 .
Found: 74

Lookup: Look up and report measured Ki (D(3) dopamine receptor (Rattus norvegicus, UniProt P19020)) for the following molecule: Cn1c(SCCCN2CCOC(c3ccc(C(F)(F)F)cc3)C2)nnc1-c1ccc(C#N)cc1 (racemic)
Found: 100

Lookup: Please tell me the measured Ki for COc1ccccc1N1CCN(CCCCNS(=O)(=O)c2ccc3ccccc3c2)CC1 ; system: D(3) dopamine receptor (Rattus norvegicus, UniProt P19020).
Sequence (P19020 whole entry): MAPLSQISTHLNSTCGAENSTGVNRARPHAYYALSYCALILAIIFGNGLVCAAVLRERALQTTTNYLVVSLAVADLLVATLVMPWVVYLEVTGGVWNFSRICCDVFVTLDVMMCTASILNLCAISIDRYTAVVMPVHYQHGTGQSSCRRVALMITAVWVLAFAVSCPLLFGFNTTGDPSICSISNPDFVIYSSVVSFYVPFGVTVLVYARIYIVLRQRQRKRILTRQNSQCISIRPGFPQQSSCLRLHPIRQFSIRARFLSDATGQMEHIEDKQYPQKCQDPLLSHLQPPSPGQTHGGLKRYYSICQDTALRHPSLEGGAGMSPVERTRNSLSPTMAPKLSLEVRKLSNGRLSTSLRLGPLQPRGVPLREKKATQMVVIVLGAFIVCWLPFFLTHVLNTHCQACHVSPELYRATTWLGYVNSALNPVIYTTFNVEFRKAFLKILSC
Found: 79

====

Ok so here's the combined literature set: Ki for D(3) dopamine receptor (Rattus norvegicus, UniProt P19020).
Enter your answer as a number in nM; do not include the unit.

Lookup: Find the measured Ki of CCCN(CCN1CCN(c2ccccc2)CC1)C1CCc2ccc(NC(=O)c3ccccc3)cc2C1 (stereo not drawn) with D(3) dopamine receptor (Rattus norvegicus, UniProt P19020) as test system.
Found: 109

Lookup: Please indicate recorded Ki of Cn1c(SCCCN2CCOC(c3ccc(C(F)(F)F)cc3)C2)nnc1-c1cncc(C(N)=O)c1 (racemic) measured with D(3) dopamine receptor (Rattus norvegicus, UniProt P19020).
Found: 100

Lookup: Report value: Ki, system: D(3) dopamine receptor (Rattus norvegicus, UniProt P19020), compound: COc1ccc2c(c1)CCC1CN(CC[C@H]3CC[C@H](NC(=O)c4cccc5cccnc45)CC3)CCN21 (stereo partly drawn)
Found: 87

====

Please find below pKi data on D(3) dopamine receptor (Rattus norvegicus, UniProt P19020) compiled from the literature.
Remember the convention: pKi equals -log10 of concentration in molar.

Lookup: Enter recorded pKi with D(3) dopamine receptor (Rattus norvegicus, UniProt P19020) for CCCN(CCN1CCN(c2ccc(-c3cccc(O)c3)cc2)CC1)C1CCc2nc(N)ncc2C1 (racemic) here.
Found: 7.17

Lookup: Supply pKi measured with D(3) dopamine receptor (Rattus norvegicus, UniProt P19020) for COc1ccccc1N1CCN(CCCCN2CCn3c(cc4ccccc43)C2=O)CC1 .
Found: 9.06

Lookup: Report measured pKi on D(3) dopamine receptor (Rattus norvegicus, UniProt P19020); entry: Cc1cc(=O)oc2c(C)c(OCCCCN3CCC(c4noc5cc(F)ccc45)CC3)ccc12
Found: 7.87

Lookup: Name the recorded pKi of COc1cc(NC(=O)C2CC2)c(Cl)cc1C(=O)N[C@H]1CCNC1 , assay system D(3) dopamine receptor (Rattus norvegicus, UniProt P19020).
Found: 5.52
